Entry source: patent US20250034185A1

test system: plasma enzymes; conditions: Sprague Dawley, rat
Recorded P5P formed split into classes low value: < 0.4 µM; medium value: ≥ 0.4 µM and < 2 µM; high value: ≥ 2 µM

• Cc1ncc(COP(=O)(N[C@@H](CC(C)C)C(=O)OC(C)C)Oc2ccccc2)c(CO)c1O (some centres unmarked) = medium value
• Cc1ncc(COP(=O)(N[C@@H](Cc2cn(C(=O)OC(C)(C)C)c3ccccc23)C(=O)OC(C)C)Oc2ccccc2)c(C=O)c1O (some centres unmarked) = low value
• [2H]C([2H])([2H])c1ncc(C([2H])([2H])OP(=O)(N[C@@H](C)C(=O)OC(C)C)Oc2ccccc2)c(CO)c1O (some centres unmarked) = medium value

Input line: Using the reported P5P formed, which band applies to Cc1ncc(COP(=O)(N[C@@H](C)C(=O)OC2CCCC2)Oc2ccccc2)c(CN)c1O (some centres unmarked) [Compound 14x] ?
Output line: low value

Input line: Please report the category associated with Cc1ncc(COP(=O)(N[C@@H](C)C(=O)Oc2ccc(Cl)cc2)Oc2ccccc2)c(CN)c1O (some centres unmarked) , nothing else.
Output line: high value

Input line: State the class of the compound shown: Cc1ncc(COP(=O)(N[C@@H](C)C(=O)Oc2ccc3ccccc3c2)Oc2ccccc2)c(CO)c1O (some centres unmarked) [Compound 15iv]
Output line: medium value

Input line: Band for Cc1ncc(COP(=O)(N[C@@H](Cc2ccc(O)cc2)C(=O)OC(C)C)Oc2ccccc2)c(C=O)c1O (some centres unmarked) ?
Output line: high value

* * *

system: plasma enzymes; conditions: Sprague Dawley, rat
Label YES when relative P5P formed is at or above 20%; anything below gets NO.

- Cc1ncc(COP(=O)(N[C@@H](C)C(=O)OC(C)C)Oc2ccc(Br)cc2F)c(CN)c1O (stereo partly drawn) [Compound 14xviii]: YES
- Cc1ncc(COP(=O)(N[C@@H](C)C(=O)OC(C)C)Oc2cccc3ccccc23)c(C=O)c1O (stereo partly drawn) [Compound 16iv]: YES
- [2H]C([2H])([2H])C(OC(=O)[C@H](C)NP(=O)(OCc1cnc(C)c(O)c1CN)Oc1ccccc1)C([2H])([2H])[2H] (stereo partly drawn) [Compound 14viii]: NO
- Cc1ncc(COP(=O)(N[C@@H](C)C(=O)OC(C)C)Oc2cccc3ccccc23)c(CO)c1O (stereo partly drawn) [Compound 15x]: NO
- Cc1ncc(COP(=O)(NC(CC(F)(F)F)C(=O)OC(C)C)Oc2ccccc2)c(C=O)c1O (stereo not drawn) [Compound 16xi]: NO
- [2H]C([2H])([2H])C(OC(=O)[C@H](C)NP(=O)(OCc1cnc(C)c(O)c1C=O)Oc1ccccc1)C([2H])([2H])[2H] (stereo partly drawn) [Compound 16xxii]: YES
- Cc1ccc(OC(=O)[C@H](C)NP(=O)(OCc2cnc(C)c(O)c2CN)Oc2ccccc2)cc1 (stereo partly drawn) [Compound 14vii]: NO
- Cc1ncc(COP(=O)(N[C@@H](C)C(=O)OC(C)C)Oc2ccc(Br)cc2F)c(C=O)c1O (stereo partly drawn) [Compound 16xxxix]: YES
- Cc1ncc(COP(=O)(N[C@@H](C)C(=O)Oc2ccc(Cl)cc2)Oc2ccccc2)c(C=O)c1O (stereo partly drawn) [Compound 16xL]: YES
- Cc1ncc(COP(=O)(N[C@@H](C)C(=O)OCC2CCCC2)Oc2ccccc2)c(CO)c1O (stereo partly drawn) [Compound 15vii]: NO

Input line: Does the compound Cc1ncc(COP(=O)(N[C@@H](CC(C)C)C(=O)OC(C)C)Oc2ccccc2)c(CO)c1O (stereo partly drawn) [Compound 15xiii] have recorded relative P5P formed that is 20% or more?
Output line: NO

Input line: Does relative P5P formed meet or surpass 20% for Cc1ncc(COP(=O)(N[C@@H](C)C(=O)OCc2ccccc2)Oc2ccccc2)c(/C=N/CCc2ccc(C#N)cc2)c1O (stereo partly drawn) [Compound 16xxxviii] ?
Output line: NO

Input line: Textbook exercise: given the entry Cc1ncc(COP(=O)(N[C@@H](C)C(=O)OC2CCN(C)CC2)Oc2ccccc2)c(CN)c1O (stereo partly drawn) [Compound 14xv] , state whether its relative P5P formed is greater than or equal to 20%.
Output line: NO

Input line: Reported relative P5P formed reaches at least 20% for Cc1ncc(COP(=O)(N[C@@H](C)C(=O)OC(C)C)Oc2ccc(Cl)cc2)c(CN)c1O (stereo partly drawn) [Compound 14v] ?
Output line: NO

Input line: Form field: relative P5P formed at least 20%? Entry: CCC(CC)COC(=O)[C@H](C)NP(=O)(OCc1cnc(C)c(O)c1CO)Oc1ccccc1 (stereo partly drawn) [Compound 15xxxiv]
Output line: NO

Input line: Please indicate if the recorded relative P5P formed for [2H]C([2H])([2H])C([2H])(OC(=O)[C@H](C)NP(=O)(OCc1cnc(C)c(O)c1C=O)Oc1ccccc1)C([2H])([2H])[2H] (stereo partly drawn) [Compound 16xxi] meets or exceeds 20%.
Output line: NO

Input line: Does the compound Cc1ncc(COP(=O)(N[C@@H](C)C(=O)Oc2ccc(Cl)cc2)Oc2ccccc2)c(CN)c1O (stereo partly drawn) [Compound 14xvii] have recorded relative P5P formed that is 20% or more?
Output line: YES

Input line: Is it the case that Cc1ncc(COP(=O)(N[C@@H](C)C(=O)Oc2ccc3c(c2)CCCC3)Oc2ccccc2)c(C=O)c1O (stereo partly drawn) [Compound 16xxxiv] has relative P5P formed reaching or exceeding 20%?
Output line: YES

Input line: In plain terms: is recorded relative P5P formed at least 20% for Cc1ncc(COP(=O)(N[C@@H](C)C(=O)OC(C)C)Oc2ccccc2)c(CO)c1OC(=O)c1ccccc1 (stereo partly drawn) [Compound 15xvii] ?
Output line: NO

Input line: Assess whether reported relative P5P formed for Cc1ccc(OC(=O)[C@H](C)NP(=O)(OCc2cnc(C)c(O)c2C=O)Oc2ccccc2)cc1 (stereo partly drawn) [Compound 16xxiii] sits at 20% or higher.
Output line: YES

Input line: Record Cc1ccc(OP(=O)(N[C@@H](C)C(=O)OC(C)C)OCc2cnc(C)c(O)c2CN)cc1 (stereo partly drawn) [Compound 14xvi] ; criterion: relative P5P formed no lower than 20%. Met?
Output line: NO

Input line: Check this compound for relative P5P formed at or above 20%: Cc1ncc(COP(=O)(NC(CC(F)(F)F)C(=O)OC(C)C)Oc2ccccc2)c(CO)c1O (stereo not drawn) [Compound 15xiv]
Output line: NO

Input line: Confirm if relative P5P formed reported for the compound Cc1ncc(COP(=O)(N[C@@H](C)C(=O)OCc2ccccc2)Oc2ccccc2)c(CN)c1O (stereo partly drawn) [Compound 14iii] is 20% or above.
Output line: NO

* * *

system: plasma enzymes; details: Sprague Dawley, rat
PROPERTY_NAME: P5P formed (µM)
Expressed in µM, but write only the number.

Worked set:
- Cc1ncc(COP(=O)(N[C@@H](C)C(=O)OC(C)C)Oc2cccc3ccccc23)c(CO)c1O (stereo partly drawn) [Compound 15x]: 0
- [2H]c1c([2H])c([2H])c(OP(=O)(N[C@@H](C)C(=O)OC(C)C)OCc2cnc(C)c(O)c2CO)c([2H])c1[2H] (stereo partly drawn): 0.4
- Cc1ncc(COP(=O)(N[C@@H](C)C(=O)OC2CCCC2)Oc2ccccc2)c(C=O)c1O (stereo partly drawn): 2.2
- Cc1ncc(COP(=O)(N[C@@H](C)C(=O)OCc2ccccc2)Oc2ccccc2)c(CO)c1O (stereo partly drawn) [Compound 15xi]: 1.1
- Cc1ncc(COP(=O)(N[C@@H](C)C(=O)OC(C)C)Oc2ccccc2)c(CO)c1OC(=O)c1ccccc1 (stereo partly drawn): 0.3
- Cc1ncc(COP(=O)(N[C@@H](C)C(=O)OCc2ccccc2)Oc2ccccc2)c(CN)c1O (stereo partly drawn): 0.7

In the following, a different compound is considered.
Input line: Provide measured P5P formed value, entry: Cc1ncc(COP(=O)(N[C@@H](C)C(=O)OC(C)C)Oc2cccc3ccccc23)c(C=O)c1O (stereo partly drawn) [Compound 16iv]
Output line: 1.8

* * *

system: plasma enzymes; conditions: Sprague Dawley, rat
# relative P5P formed per entry
// unit must come after the numeric part

Previously resolved entries follow.
- Cc1ncc(COP(=O)(N[C@@H](C)C(=O)OCC2CCCC2)Oc2ccccc2)c(C=O)c1O (stereo partly shown) [Compound 16x]: 121.9%
- Cc1ncc(COP(=O)(N[C@@H](C)C(=O)OCc2ccccc2)Oc2ccccc2)c(CO)c1O (stereo partly shown) [Compound 15xi]: 10.5%
- Cc1ncc(COP(=O)(N[C@@H](C)C(=O)OC(C)C)Oc2ccc(Cl)c(Cl)c2)c(CO)c1O (stereo partly shown) [Compound 15iii]: 7.4%
- Cc1ncc(COP(=O)(N[C@@H](C)C(=O)Oc2ccc3ccccc3c2)Oc2ccccc2)c(CO)c1O (stereo partly shown) [Compound 15iv]: 6.2%
- Cc1ncc(COP(=O)(N[C@@H](C)C(=O)OC2CCCC2)Oc2ccccc2)c(C=O)c1O (stereo partly shown) [Compound 16xxiv]: 129.4%

Input line: Return the recorded relative P5P formed value; entry: [2H]C([2H])(OP(=O)(N[C@@H](C)C(=O)OC(C)C)Oc1ccccc1)c1cnc(C)c(O)c1C=O (stereo partly shown) [Compound 16xxvii]
Output line: 69.0%

Input line: Identify measured relative P5P formed associated with [2H]c1c([2H])c([2H])c(OP(=O)(N[C@@H](C)C(=O)OC(C)C)OCc2cnc(C)c(O)c2C=O)c([2H])c1[2H] (stereo partly shown) [Compound 16xx]
Output line: 38.9%

Input line: Tell me measured relative P5P formed for Cc1ncc(CO[P@@](=O)(N[C@@H](C)C(=O)OC(C)C)Oc2ccccc2)c(CO)c1O [Compound 15i] please.
Output line: 2.6%

Input line: Write down relative P5P formed measured for item Cc1ncc(COP(=O)(N[C@@H](Cc2ccc(OCc3ccccc3)cc2)C(=O)OC(C)C)Oc2ccccc2)c(C=O)c1O (stereo partly shown) [Compound 16xxix]
Output line: 58.5%

Input line: Look up and report measured relative P5P formed for this entry: Cc1ncc(COP(=O)(N[C@@H](C)C(=O)OC2CCCC2)Oc2ccccc2)c(CN)c1O (stereo partly shown) [Compound 14x]
Output line: 11.1%

Input line: Return the recorded relative P5P formed value; entry: Cc1ncc(CO[P@@](=O)(N[C@@H](C)C(=O)OC(C)C)Oc2ccccc2)c(/C=N/C2CCCC2)c1O [Compound 16xxxvi]
Output line: 152.0%

Input line: Please give the documented relative P5P formed of Cc1ncc(COP(=O)(N[C@H](C(=O)OC(C)C)C2CCCC2)Oc2ccccc2)c(CO)c1O (stereo partly shown) [Compound 15xii]
Output line: 7.4%

Input line: In one line, give reported relative P5P formed of the entry Cc1ccc(OP(=O)(N[C@@H](C)C(=O)OC(C)C)OCc2cnc(C)c(O)c2C=O)cc1 (stereo partly shown) [Compound 16xxxvii] .
Output line: 12.0%
